biological target: EGFR L858R/T790M (Homo sapiens (Human), UniProt P00533, L858R/T790M); experiment: HTRF-based EGFR biochemical assay; conditions: 100 μM ATP, 30 min preincubation, enzyme 0.02 nM
Sequence (P00533 25-1210 T790M/L858R): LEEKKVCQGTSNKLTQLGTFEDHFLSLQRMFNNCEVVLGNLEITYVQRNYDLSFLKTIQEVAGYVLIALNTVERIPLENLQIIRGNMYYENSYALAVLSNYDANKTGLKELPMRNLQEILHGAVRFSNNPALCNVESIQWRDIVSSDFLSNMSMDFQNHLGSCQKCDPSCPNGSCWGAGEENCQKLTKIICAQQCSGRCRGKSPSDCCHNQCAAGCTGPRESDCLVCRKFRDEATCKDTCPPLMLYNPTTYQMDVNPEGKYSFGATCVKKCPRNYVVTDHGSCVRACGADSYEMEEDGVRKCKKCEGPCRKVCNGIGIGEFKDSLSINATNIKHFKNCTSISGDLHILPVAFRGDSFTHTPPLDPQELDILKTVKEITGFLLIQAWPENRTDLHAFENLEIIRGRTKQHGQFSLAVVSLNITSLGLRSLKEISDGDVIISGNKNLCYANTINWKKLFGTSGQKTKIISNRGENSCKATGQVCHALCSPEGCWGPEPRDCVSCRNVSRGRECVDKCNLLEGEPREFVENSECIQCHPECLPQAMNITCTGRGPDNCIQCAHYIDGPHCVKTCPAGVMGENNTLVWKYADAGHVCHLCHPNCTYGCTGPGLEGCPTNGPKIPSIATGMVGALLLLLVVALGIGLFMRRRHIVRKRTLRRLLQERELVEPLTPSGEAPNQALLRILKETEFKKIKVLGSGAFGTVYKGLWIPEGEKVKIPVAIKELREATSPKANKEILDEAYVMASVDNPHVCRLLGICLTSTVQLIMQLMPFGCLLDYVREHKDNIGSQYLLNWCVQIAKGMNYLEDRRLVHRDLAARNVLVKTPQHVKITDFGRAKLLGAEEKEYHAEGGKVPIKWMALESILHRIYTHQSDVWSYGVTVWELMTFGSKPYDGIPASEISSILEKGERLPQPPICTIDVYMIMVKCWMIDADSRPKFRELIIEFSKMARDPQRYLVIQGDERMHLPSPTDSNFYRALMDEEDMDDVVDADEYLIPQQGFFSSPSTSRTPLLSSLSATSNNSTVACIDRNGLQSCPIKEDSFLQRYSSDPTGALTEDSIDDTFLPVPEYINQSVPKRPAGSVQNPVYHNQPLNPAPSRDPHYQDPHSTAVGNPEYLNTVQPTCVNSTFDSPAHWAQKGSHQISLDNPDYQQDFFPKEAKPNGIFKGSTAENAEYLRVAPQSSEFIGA
Would you mind telling me the reported IC50 of each entry?

Can you look up IC50 on EGFR L858R/T790M (Homo sapiens (Human), UniProt P00533, L858R/T790M) for C=CC(=O)Nc1cc2cc(c1)-c1cnn(C)c1OCCC[C@@H](C)Cn1c(nc3ccc(Br)cc31)NC2=O [Compound 001] ?
> 100 nM

# iterate: C=CC(=O)Nc1cc2sc1-c1cnn(C)c1OCCC[C@@H](C)Cn1c(nc3ccc(Br)cc31)NC2=O [Compound 002]
> 100 nM

* * *

Molecular target: EGFR L858R (Homo sapiens (Human), UniProt P00533, L858R)
Sequence (P00533 25-1210 L858R): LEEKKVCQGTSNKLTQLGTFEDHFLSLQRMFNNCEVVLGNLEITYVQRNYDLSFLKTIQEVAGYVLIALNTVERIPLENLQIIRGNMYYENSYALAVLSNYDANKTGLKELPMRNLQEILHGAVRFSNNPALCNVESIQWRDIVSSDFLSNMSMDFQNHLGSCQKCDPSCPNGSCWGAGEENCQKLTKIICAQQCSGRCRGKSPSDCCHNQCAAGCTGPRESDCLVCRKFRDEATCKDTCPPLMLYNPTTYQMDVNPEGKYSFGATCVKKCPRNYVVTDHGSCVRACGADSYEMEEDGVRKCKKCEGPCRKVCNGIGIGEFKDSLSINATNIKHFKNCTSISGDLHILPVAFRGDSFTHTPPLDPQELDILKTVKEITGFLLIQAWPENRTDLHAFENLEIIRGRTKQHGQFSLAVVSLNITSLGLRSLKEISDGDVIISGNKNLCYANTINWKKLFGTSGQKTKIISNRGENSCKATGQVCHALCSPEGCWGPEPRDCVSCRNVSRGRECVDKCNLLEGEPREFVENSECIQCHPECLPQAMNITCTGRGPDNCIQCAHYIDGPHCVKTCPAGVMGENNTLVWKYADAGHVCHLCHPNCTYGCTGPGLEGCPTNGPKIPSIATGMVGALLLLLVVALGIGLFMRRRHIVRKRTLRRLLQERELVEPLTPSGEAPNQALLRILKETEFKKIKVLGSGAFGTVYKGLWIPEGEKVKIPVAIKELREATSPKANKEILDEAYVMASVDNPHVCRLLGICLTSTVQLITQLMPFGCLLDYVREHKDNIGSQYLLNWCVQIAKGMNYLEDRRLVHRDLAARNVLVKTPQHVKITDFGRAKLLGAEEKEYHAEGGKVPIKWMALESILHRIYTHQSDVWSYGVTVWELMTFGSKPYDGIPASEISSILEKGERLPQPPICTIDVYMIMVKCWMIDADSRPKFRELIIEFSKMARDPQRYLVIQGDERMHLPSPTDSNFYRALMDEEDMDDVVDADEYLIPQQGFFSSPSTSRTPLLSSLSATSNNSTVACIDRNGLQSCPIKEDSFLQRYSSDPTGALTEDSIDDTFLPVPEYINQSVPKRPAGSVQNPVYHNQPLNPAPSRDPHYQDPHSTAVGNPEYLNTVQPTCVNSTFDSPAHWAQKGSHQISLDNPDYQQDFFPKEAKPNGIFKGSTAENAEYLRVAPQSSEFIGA
Assay: HTRF-based EGFR biochemical assay
Conditions: 100 μM ATP, 30 min preincubation, enzyme 0.1 nM
Protocol: EGFR biochemical activity measurements were carried out using the homogeneous time-resolved fluorescence (HTRF) assay (Cisbio). […] Reactions were quenched with the addition of 10 μL of phospho-tyrosine antibody-Europium(III) cryptate (1-to-180 volume ratio) and Streptavidin-XL665 (46.7 nM) in EDTA-containing detection buffer, then incubated at room temperature for 1 hour, and read with a PHERAstar plate reader (excitation=337 nm, emission=620 nm and 665 nm). […]
measurement-name: IC50

Please tell me: IC50 of C=CC(=O)Nc1cc2cc(c1)-c1cnn(C)c1OCCC[C@@H](C)Cn1c(nc3ccc(Br)cc31)NC2=O [Compound 001] , system EGFR L858R (Homo sapiens (Human), UniProt P00533, L858R)?
> 100 nM

Param item: C=CC(=O)Nc1cc2sc1-c1cnn(C)c1OCCC[C@@H](C)Cn1c(nc3ccc(Br)cc31)NC2=O [Compound 002]
> 100 nM
